Origin of measurements: PubChem BioAssay AID689

# target.or.test.system: Ephrin type-A receptor 4 (Mus musculus)
# assay.notes: inhibitors of EphA4 binding to KYL peptide, primary screen, biochemical, colorimetric, mouse EphA4 (AID 689)
# condition.summary: EphA4-AP binding to KYL peptide, pNPP A405, at 10 µM, hits give high values
Screen size: about 62,000 compounds; about 80 (0.1%) were called active. The list is a sample of the results. Measured potencies and affinities stand elsewhere.
Please go through the items and note down their inhibition.

Ask: State its inhibition for this molecule: Cc1ccc(-n2ncnc2-c2cccc(Cl)c2)cc1Cl
Reply: 0.3% [this sample at 5 µg/mL] (inactive)

Ask: State its inhibition for this molecule: O=C(CSc1nnc(-c2ccco2)c(-c2ccco2)n1)Nc1ccccc1
Reply: 41.7% (inactive)

Ask: State its inhibition for this molecule: c1ccc(-c2nc(-n3nc4ccccc4n3)nc3ccccc23)cc1
Reply: -3.4% (inactive)

Ask: State its inhibition for this molecule: CCSc1nnc(NC(=O)C(C)C)s1
Reply: -5.3% (inactive)

Ask: State its inhibition for this molecule: Cc1ccc(NC2=Nc3ccccc3N3C2=Nc2c(c(C)nn2-c2ccccc2)C3c2ccc(O)c(O)c2)cc1 (centres undefined)
Reply: 27.8% (inactive)

Ask: State its inhibition for this molecule: COC(=O)c1ccc(Cn2cnc3c(cnn3-c3ccc(F)cc3)c2=O)o1
Reply: 9.4% (inactive)

Ask: State its inhibition for this molecule: COc1ccc(CCNC(=O)c2ccc3nc(-c4ccco4)c(-c4ccco4)nc3c2)cc1OC
Reply: 24.1% (inactive)

Ask: State its inhibition for this molecule: Cc1cc(C)c2nc(N3CCCN(C(=O)c4cnccn4)CC3)c(C#N)cc2c1
Reply: 11.5% (inactive)

Ask: State its inhibition for this molecule: CCc1ccc(S(=O)(=O)Nc2cc(Br)c(O)c3ccccc23)cc1
Reply: 2.2% [this sample at 5 µg/mL] (inactive)

Ask: State its inhibition for this molecule: CCCn1cnc2c(c1=O)c1nc3ccccc3nc1n2CCc1ccccc1
Reply: -9.5% (inactive)

Ask: State its inhibition for this molecule: CCCCn1c2nc3ccccc3nc2c2c(=O)n(C(C)CC)cnc21 (centres undefined)
Reply: 0.6% (inactive)

Ask: State its inhibition for this molecule: Cc1ccc(C2=N/C(=C\N3CCCCC3)C(=O)O2)cc1
Reply: -3.3% (inactive)

Ask: State its inhibition for this molecule: COc1ccc(C2C(C(=O)OCC(=O)N3CCCCC3)CCC(=O)N2c2ccc(OC)cc2)cc1 (centres undefined)
Reply: -9.6% (inactive)

Ask: State its inhibition for this molecule: O=C(c1ccccc1)N1CCN(C(=O)C23CC4CC(CC(C4)C2)C3)CC1
Reply: -9.8% (inactive)

Ask: State its inhibition for this molecule: CCSc1nnc(NC(=O)C(CC)(C(F)(F)F)C(F)(F)F)s1
Reply: -7.4% (inactive)

Ask: State its inhibition for this molecule: Cc1ccc(N2C(=O)c3n[nH]c(C)c3C2c2cccnc2)cc1 (centres undefined)
Reply: -11.4% (inactive)

Ask: State its inhibition for this molecule: Cc1ccccc1NC(=O)CSc1nnc(-c2ccco2)c(-c2ccco2)n1
Reply: 32.3% (inactive)

Ask: State its inhibition for this molecule: O=C(O)CCC(=O)NCCn1c(-c2ccccc2)csc1=Nc1ccccc1
Reply: -2.4% (inactive)

Ask: State its inhibition for this molecule: Cc1ccc(N(CC(=O)N/N=C/c2ccco2)S(=O)(=O)c2ccccc2)cc1
Reply: 15.6% (inactive)

Ask: State its inhibition for this molecule: CCOC(=O)N1CCN(C(=O)CSCc2nc(-c3ccccc3C)oc2C)CC1
Reply: 7.2% (inactive)

Ask: State its inhibition for this molecule: Cn1nc(-c2ccccc2)c2nc3ccccc3nc21
Reply: 45.4% (inactive)

Ask: State its inhibition for this molecule: O=C(CSCc1ccccc1Cl)NNC(=S)Nc1ccccc1
Reply: -12.3% (inactive)

Ask: State its inhibition for this molecule: Nc1ccc2c(c1)C(=O)C(=O)c1ccccc1-2
Reply: -16.9% (inactive)

Ask: State its inhibition for this molecule: Cc1ccc2nc(NC3=NCN(Cc4ccccc4)CN3)nc(C)c2c1
Reply: 1.1% (inactive)

Ask: State its inhibition for this molecule: CCOc1cc(/C=C2/SC(=S)N(CC)C2=O)ccc1OCc1ccccc1Cl
Reply: 5% [this sample at 5 µg/mL] (inactive)

Ask: State its inhibition for this molecule: CC(C)Cn1c(N)c(C(=O)CSc2nnnn2C)c(=O)n(C)c1=O
Reply: -12% (inactive)

Ask: State its inhibition for this molecule: O=C1OC(c2ccccc2)=N/C1=C\N1CCCCC1
Reply: -17.4% (inactive)

Ask: State its inhibition for this molecule: CCCCn1c2nc3ccccc3nc2c2c(=O)n(CCC)cnc21
Reply: -2.2% (inactive)

Ask: State its inhibition for this molecule: CCOC(=O)c1c(NC(=S)Nc2ccccc2)sc2c1CCN(CC)C2
Reply: 0.4% (inactive)

Ask: State its inhibition for this molecule: Cc1cc(C)c2nc(N3CCN(C)CC3)c(C#N)cc2c1
Reply: 8.1% (inactive)

Ask: State its inhibition for this molecule: N=c1oc2ccccc2cc1-c1nc2ccccc2c(=O)[nH]1
Reply: 5.9% (inactive)

Ask: State its inhibition for this molecule: COc1cc(/C=C2\SC(=S)N(Nc3ncc(C(F)(F)F)cc3Cl)C2=O)ccc1O
Reply: 46.2% (inactive)

Ask: State its inhibition for this molecule: O=C1/C(=C/c2ccc(F)cc2)SC(=S)N1Nc1ncc(C(F)(F)F)cc1Cl
Reply: -6.5% (inactive)

Ask: State its inhibition for this molecule: Cc1onc(-c2ccccc2Cl)c1C(=O)Nc1ccccc1N1CCOCC1
Reply: 4% (inactive)

Ask: State its inhibition for this molecule: CCCCCn1c(N)c(C#N)c2nc3ccccc3nc21
Reply: 0.7% (inactive)

Ask: State its inhibition for this molecule: O=C1N=C(c2ccccc2)S/C1=C\c1cccs1
Reply: 5.5% (inactive)

Ask: State its inhibition for this molecule: O=C(NC1CCCCCCC1)C1CCCN(S(=O)(=O)c2cnc[nH]2)C1 (centres undefined)
Reply: -3.1% (inactive)

Ask: State its inhibition for this molecule: O=C(Nc1nc(-c2ccccc2)c(-c2ccccc2)s1)c1ccc(S(=O)(=O)N2CCCC2)cc1
Reply: 8.7% [this sample at 5 µg/mL] (inactive)

====

# target.or.test.system: Ephrin type-A receptor 4 (Mus musculus)
# assay.notes: inhibitors of EphA4 binding to KYL peptide, primary screen, biochemical, colorimetric, mouse EphA4 (AID 689)
# condition.summary: EphA4-AP binding to KYL peptide, pNPP A405, at 10 µM, hits give high values
The whole screen tested about 62,000 compounds, of which about 80 (0.1%) were called active. A selection follows. Measured potencies and affinities stand elsewhere.
Please go through the items and note down their inhibition.

Ask: State its inhibition for this compound: O=C1/C(=C/C=C/c2ccccc2)SC(=S)N1c1cccc(C(F)(F)F)c1
Reply: 3.3% [this sample at 5 µg/mL] (inactive)

Ask: State its inhibition for this compound: Cc1ccc2cc(C#N)c(N3CCCN(C(=O)C4CCCO4)CC3)nc2c1 (stereo not given)
Reply: 2.7% (inactive)

Ask: State its inhibition for this compound: COc1ccc(C)cc1NC(=O)C1CC(=O)N(Cc2ccco2)C1 (stereo not given)
Reply: -16.4% (inactive)

Ask: State its inhibition for this compound: CCOC(=O)C(C)(C)C(=O)C(C)(C)C(O)c1ccccn1 (stereo not given)
Reply: -7.7% (inactive)

Ask: State its inhibition for this compound: CCOC(=O)C1=C(c2ccccc2)N=c2s/c(=C\c3ccc(O)cc3)c(=O)n2C1c1cccs1 (stereo not given)
Reply: 23.9% (inactive)

Ask: State its inhibition for this compound: COc1cc(C(=O)N2CCCN(c3nc4cc(C)ccc4cc3C#N)CC2)cc(OC)c1OC
Reply: 1.5% (inactive)

Ask: State its inhibition for this compound: N#CC1=C(N)C(C#N)(C#N)C(c2cccnc2)C2CCCC=C12 (stereo not given)
Reply: -10% (inactive)

Ask: State its inhibition for this compound: Cc1cccc(Cn2cc(/C=C/[N+](=O)[O-])c3ccccc32)c1
Reply: 40.7% (inactive)

Ask: State its inhibition for this compound: CCOc1ccccc1NC(=S)N1CCC(NC(=O)NC23CC4CC(CC(C4)C2)C3)CC1
Reply: -4.6% (inactive)

====

Please go through the items and note down their inhibition.
# target.or.test.system: Ephrin type-A receptor 4 (Mus musculus) (UniProt Q03137)
# Sequence (Q03137 whole entry, looked up): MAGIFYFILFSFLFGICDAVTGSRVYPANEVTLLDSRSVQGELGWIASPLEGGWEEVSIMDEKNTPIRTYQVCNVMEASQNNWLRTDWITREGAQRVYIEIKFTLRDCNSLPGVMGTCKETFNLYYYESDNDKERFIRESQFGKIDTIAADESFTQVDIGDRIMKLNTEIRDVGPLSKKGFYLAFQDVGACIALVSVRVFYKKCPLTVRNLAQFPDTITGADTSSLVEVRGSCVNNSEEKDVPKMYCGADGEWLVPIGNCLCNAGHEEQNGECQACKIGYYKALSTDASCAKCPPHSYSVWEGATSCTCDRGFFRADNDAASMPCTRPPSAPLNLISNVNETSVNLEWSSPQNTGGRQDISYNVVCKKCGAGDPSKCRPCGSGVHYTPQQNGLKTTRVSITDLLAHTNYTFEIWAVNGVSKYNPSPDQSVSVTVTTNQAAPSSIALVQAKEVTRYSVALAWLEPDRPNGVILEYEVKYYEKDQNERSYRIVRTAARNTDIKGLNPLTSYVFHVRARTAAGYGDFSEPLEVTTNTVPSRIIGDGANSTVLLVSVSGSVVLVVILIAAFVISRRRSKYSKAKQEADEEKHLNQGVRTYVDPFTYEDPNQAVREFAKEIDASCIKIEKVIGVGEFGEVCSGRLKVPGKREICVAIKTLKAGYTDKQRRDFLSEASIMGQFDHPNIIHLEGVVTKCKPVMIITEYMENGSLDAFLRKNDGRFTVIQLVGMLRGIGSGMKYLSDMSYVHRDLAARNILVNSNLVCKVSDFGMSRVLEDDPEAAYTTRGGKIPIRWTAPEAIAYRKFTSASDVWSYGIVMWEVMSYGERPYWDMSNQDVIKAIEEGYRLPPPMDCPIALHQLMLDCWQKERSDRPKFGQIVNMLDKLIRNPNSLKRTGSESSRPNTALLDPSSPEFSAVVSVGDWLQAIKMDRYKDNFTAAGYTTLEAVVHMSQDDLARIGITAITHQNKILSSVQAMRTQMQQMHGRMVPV
# assay.notes: inhibitors of EphA4 binding to KYL peptide, primary screen, biochemical, colorimetric, mouse EphA4 (AID 689)
# condition.summary: EphA4-AP binding to KYL peptide, pNPP A405, at 10 µM, hits give high values
In all, about 62,000 compounds went through this assay and about 80 (0.1%) were called active. These entries were drawn from the full list. Results with a measured potency or affinity are listed apart.
Hi! Could you send only the number? It should be in %, unit omitted.

Ask: State its inhibition for this compound: O=c1oc2ccccc2c(O)c1/C=N/c1ccccn1
Reply: -4.8

Ask: State its inhibition for this compound: Oc1c(/C=N/c2ncn[nH]2)ccc2ccccc12
Reply: -0.6

Ask: State its inhibition for this compound: CCC(CC)COC(=O)C(C#N)c1nc2ccccc2nc1N1CCOCC1 (stereo not given)
Reply: 48.9

Ask: State its inhibition for this compound: CNc1ccc(Br)cc(C(=O)/C=C/c2ccc3c(c2)OCO3)c1=O
Reply: 32.2

Ask: State its inhibition for this compound: CCCN1C(=O)/C(=C/c2c(NCCCOC(C)C)nc3c(C)cccn3c2=O)SC1=S
Reply: 38.4

Ask: State its inhibition for this compound: CCOCCCNc1nc2c(C)cccn2c(=O)c1/C=C1\SC(=S)N(CC(C)C)C1=O
Reply: -4.7

Ask: State its inhibition for this compound: Cc1ccc(N2CCCn3c2nc2c3c(=O)n(CCN3CCOCC3)c(=O)n2C)cc1
Reply: -11

Ask: State its inhibition for this compound: CCC1(C)Cc2c(C#N)c(N)sc(=S)c2CO1 (stereo not given)
Reply: 44.1

Ask: State its inhibition for this compound: CCCCc1nnc(SCc2ccc(OCC)cc2)n1N
Reply: -2.2

Ask: State its inhibition for this compound: CCOC(=O)c1cnc2c(OC)cccc2c1N1CCN(c2ccccc2OC)CC1
Reply: 3.2
